- subject-of-test: SHP2 (full length) (Homo sapiens, UniProt Q06124)
- Construct: SHP2 (full length, diluted to 100 pM final concentration in reaction buffer, BPS bioscience, US); purchased BPS bioscience, US
- Sequence (Q06124 whole entry): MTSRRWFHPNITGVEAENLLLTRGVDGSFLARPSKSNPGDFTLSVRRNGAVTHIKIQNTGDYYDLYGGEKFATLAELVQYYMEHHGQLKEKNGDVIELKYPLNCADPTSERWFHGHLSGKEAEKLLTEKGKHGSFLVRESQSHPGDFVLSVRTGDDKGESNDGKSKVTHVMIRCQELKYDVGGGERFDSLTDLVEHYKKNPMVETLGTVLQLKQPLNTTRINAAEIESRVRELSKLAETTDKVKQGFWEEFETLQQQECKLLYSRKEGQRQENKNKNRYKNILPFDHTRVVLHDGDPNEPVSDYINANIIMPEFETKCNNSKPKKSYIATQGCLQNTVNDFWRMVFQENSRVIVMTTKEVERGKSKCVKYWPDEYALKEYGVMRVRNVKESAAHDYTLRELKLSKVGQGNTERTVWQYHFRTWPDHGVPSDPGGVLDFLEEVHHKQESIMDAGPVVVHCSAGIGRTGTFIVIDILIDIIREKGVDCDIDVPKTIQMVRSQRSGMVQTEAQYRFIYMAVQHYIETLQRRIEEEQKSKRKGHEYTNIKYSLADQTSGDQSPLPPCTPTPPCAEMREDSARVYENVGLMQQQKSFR
- assay-overview: Phosphatase assay (PTPase assay) with DiFMUP substrate
- Format: biochemical
- test-context: SHP2 activated with SHP2 activating peptide; DiFMUP 80 μM, 2 hours; fluorescence; read-out: IC50 (PTPase aS say)
pIC50: −log10 of the molar value.
measurement-name: pIC50

1. C[C@@H]1OCC2(CCN(c3cnc(Sc4ccnc(C(=O)NCc5ccccc5)c4Cl)cn3)CC2)[C@@H]1N [Example 86] :: 7.00 to 8.52
2. Cn1c(N2CCC(C)(N)CC2)nc(N)c(Sc2ccc3ncn(-c4ccccc4)c(=O)c3c2Cl)c1=O [Example 30] :: < 7.00
3. C[C@@H]1OCC2(CCN(c3cnc(Sc4ccc5ncn(CC6=CCOCC6)c(=O)c5c4Cl)cn3)CC2)[C@@H]1N [Example 117] :: 7.00 to 8.52
4. C[C@@H]1OCC2(CCN(c3cnc(Sc4ccc5nc(OC6CCOC6)n(C)c5c4Cl)cn3)CC2)[C@@H]1N (some centres unmarked) [Example 129] :: > 8.52
5. C[C@@H]1OCC2(CCN(c3cnc(Sc4ccc5ncn(CN6CCOCC6)c(=O)c5c4Cl)cn3)CC2)[C@@H]1N [Example 78] :: > 8.52
6. COCCn1cnc2ccc(Sc3ncc(N4CCC5(CC4)CO[C@@H](C)[C@H]5N)nc3N)c(Cl)c2c1=O [Example 143] :: > 8.52
7. NC(=O)c1nc(Sc2ccc3ncn(CC4CCOCC4)c(=O)c3c2Cl)cnc1N1CCC2(CC1)Cc1ncsc1[C@H]2N [Example 174] :: > 8.52
8. C[C@@H]1OCC2(CCN(c3cnc(Sc4ccc5ncn(CC(F)(F)F)c(=O)c5c4Cl)cn3)CC2)[C@@H]1N [Example 75] :: 7.00 to 8.52
9. C[C@@H]1OCC2(CCN(c3cnc(Sc4ccc5ncn(CCCO)c(=O)c5c4Cl)cn3)CC2)[C@@H]1N [Example 63] :: > 8.52
10. N[C@H]1c2cccnc2CC12CCN(c1cnc(Sc3ccc4ncn(Cc5ccccc5)c(=O)c4c3Cl)cn1)CC2 [Example 101] :: 7.00 to 8.52
11. C[C@@H]1OCC2(CCN(c3cnc(Sc4ccc5c(c4Cl)C(=O)N(Cc4ccccc4)C5)cn3)CC2)[C@@H]1N [Example 133] :: 7.00 to 8.52
12. C[C@@H]1OCC2(CCN(c3cnc(Sc4ccc5ncn(Cc6ccoc6)c(=O)c5c4Cl)cn3)CC2)[C@@H]1N [Example 119] :: > 8.52
13. Cn1c(N2CCN(C[C@H](N)Cc3ccncc3)CC2)nc(N)c(Sc2cccc(Cl)c2Cl)c1=O [Example 186] :: < 7.00
14. C[C@@H]1OCC2(CCN(c3cnc(Sc4ccc5ncn(Cc6cccc(C(F)(F)F)c6)c(=O)c5c4Cl)cn3)CC2)[C@@H]1N [Example 34] :: 7.00 to 8.52
